The measurements presented in this section are drawn from ChEMBL document CHEMBL1143433.

- test.target: UniProt Q07817
- Sequence (Q07817 whole entry): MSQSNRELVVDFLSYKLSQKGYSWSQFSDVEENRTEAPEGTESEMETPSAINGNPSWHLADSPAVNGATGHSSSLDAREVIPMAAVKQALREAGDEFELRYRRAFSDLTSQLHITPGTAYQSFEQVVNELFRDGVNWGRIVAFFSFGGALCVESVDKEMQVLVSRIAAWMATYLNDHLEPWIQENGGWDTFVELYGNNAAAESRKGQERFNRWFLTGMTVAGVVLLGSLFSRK
- run.description: Inhibition of interaction between GST-tagged Bcl-xl and Bak by fluorescence polarization assay
- assay.conditions: read-out: IC50
// IC50 lookup, one value per entry

- compound: "CC1=C2O[C@]34OC5(CCN(C)CC5)O[C@@H]3C2=C(C(=O)C1=O)[C@@H]1O[C@H](CC[C@H](C)/C=C(\\C)C[C@@H](C)C[C@@H]4C)[C@H](C)[C@H](O)[C@H]1C"
  test.target: "UniProt Q07817"
  IC50, µM: 5
- compound: "CC1=C2O[C@]34OC(C)(C)O[C@@H]3C2=C(C(=O)C1=O)[C@@H]1O[C@H](CC[C@H](C)/C=C(\\C)C[C@@H](C)C[C@@H]4C)[C@H](C)[C@H](O)[C@H]1C"
  test.target: "UniProt Q07817"
  IC50, µM: 9.5
- compound: "CC1=C(O)C(=O)C2=C(C1=O)C(O)C(=O)[C@@H](C)C[C@H](C)C/C(C)=C/[C@@H](C)CC[C@H]1O[C@@H]2[C@H](C)[C@@H](O)[C@H]1C (some centres undefined)"
  test.target: "UniProt Q07817"
  IC50, µM: 230
- compound: "CC1=C2O[C@]3(O)C=C2C(=C(O)C1=O)[C@@H]1O[C@H](CC[C@H](C)/C=C(\\C)C[C@@H](C)C[C@@H]3C)[C@H](C)[C@H](O)[C@H]1C [KENDOMYCIN]"
  test.target: "UniProt Q07817"
  IC50, µM: 12.3
